Tested on: phosphorylation of ERK1/2 in A375 cells containing mutant B-Raf (V600E)
Assay: Phospho-ERK FACE assay in A375 (B-Raf mutated) melanoma cell line
Type: cell-based
Conditions: Homo sapiens, A-375, 2 h, read-out: IC50, A375 melanoma phospho-ERK assay
pIC50: −log10 of the molar value.
Quantity: pIC50

{"Structure": "Cc1ccc(NC(=O)c2cccc(C(C)(C)C#N)c2)cc1NC(=O)c1sc2nccnc2c1Br", "Reported Value": "6.00 to 7.00"}

----------
Target: GST-tagged human recombinant active B-Raf (Δ1-415) (Homo sapiens, UniProt P15056)
Construct: GST; purchased Upstate/Millipore
Sequence (P15056 416-766, stated change not applied): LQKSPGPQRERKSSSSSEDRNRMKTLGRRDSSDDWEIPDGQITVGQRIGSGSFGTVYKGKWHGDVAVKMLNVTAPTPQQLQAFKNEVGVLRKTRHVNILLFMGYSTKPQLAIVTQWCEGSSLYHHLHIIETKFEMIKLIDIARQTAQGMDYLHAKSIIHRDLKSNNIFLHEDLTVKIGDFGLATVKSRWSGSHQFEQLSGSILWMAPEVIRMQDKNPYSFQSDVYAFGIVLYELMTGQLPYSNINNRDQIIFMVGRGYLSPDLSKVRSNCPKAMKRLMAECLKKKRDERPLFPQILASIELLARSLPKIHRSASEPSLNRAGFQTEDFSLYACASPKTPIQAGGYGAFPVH
Assay: B-Raf kinase activity, IMAP coupled assay (B-Raf/MEK1/ERK2, fluorescence polarization)
Assay type: biochemical
pIC50: −log10 of the molar value.
Quantity: pIC50

{"Structure": "Cc1ccc(NC(=O)c2cccc(C(C)(C)C#N)c2)cc1/N=C(\\C#N)c1cc2nccnc2s1", "Reported Value": "> 7.00"}
